These measurements were taken from paper PMC12396291.

# SYSTEM TESTED: DNMT2 (Homo sapiens, UniProt O14717)
# Construct: Recombinant human DNMT2 (full-length); His-tag; made in house; host or cells: E. coli
# Sequence (O14717 1-391): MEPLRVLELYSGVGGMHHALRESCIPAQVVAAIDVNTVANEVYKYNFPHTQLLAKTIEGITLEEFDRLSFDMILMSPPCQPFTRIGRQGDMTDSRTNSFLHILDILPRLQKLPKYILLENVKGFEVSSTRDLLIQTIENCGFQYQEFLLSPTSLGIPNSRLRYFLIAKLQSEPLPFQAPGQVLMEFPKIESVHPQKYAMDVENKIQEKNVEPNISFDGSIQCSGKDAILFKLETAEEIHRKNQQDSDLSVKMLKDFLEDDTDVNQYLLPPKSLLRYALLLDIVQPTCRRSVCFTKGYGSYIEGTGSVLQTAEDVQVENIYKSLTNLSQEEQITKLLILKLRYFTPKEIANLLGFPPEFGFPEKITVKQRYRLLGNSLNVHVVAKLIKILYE
# MEASUREMENT NOTES: MST displacement assay with fluorescent FTAD probe
# Type: binding
# MEASUREMENT CONDITIONS: ligand 100 μM, FTAD probe
Reported Fnorm (% displ.): FTAD displacement values are given for each entry in this list.
EXPERIMENTAL ENDPOINT: Fnorm (% displ.): FTAD displacement (%)

compound_smiles=CCc1ccc(C(=O)NCC2(C(=O)N[C@@H](CC(=O)NCC(N)=O)Cc3csc4ccccc34)CC2)cc1 system_tested="DNMT2 (Homo sapiens, UniProt O14717)" observed_measurement=3
compound_smiles=Cc1ccc(C(=O)NCC2(C(=O)N[C@@H](CC(=O)NCC(N)=O)Cc3ccccc3)CC2)cc1 system_tested="DNMT2 (Homo sapiens, UniProt O14717)" observed_measurement=24
compound_smiles=CCc1ccc(C(=O)NCC2(C(=O)N[C@@H](CC(=O)N(C)CC(N)=O)Cc3ccccc3)CC2)cc1 system_tested="DNMT2 (Homo sapiens, UniProt O14717)" observed_measurement=7
compound_smiles=CCc1ccc(C(=O)NCC2(C(=O)N[C@@H](CC(=O)NCC(N)=O)C(=O)O)CC2)cc1 system_tested="DNMT2 (Homo sapiens, UniProt O14717)" observed_measurement=4
compound_smiles=CCc1ccc(C(=O)NCC2(C(=O)N[C@@H](CC(=O)NCC(=O)N(C)C)Cc3ccccc3)CC2)cc1 system_tested="DNMT2 (Homo sapiens, UniProt O14717)" observed_measurement=36
compound_smiles=CCc1ccc(C(=O)NCC2(C(=O)N[C@H](CC(=O)NCC(N)=O)Cc3c[nH]c4ccccc34)CC2)cc1 system_tested="DNMT2 (Homo sapiens, UniProt O14717)" observed_measurement=4
compound_smiles=NC(=O)CNC(=O)C[C@@H](Cc1ccccc1)NC(=O)C1(CNC(=O)C2CCCCC2)CC1 system_tested="DNMT2 (Homo sapiens, UniProt O14717)" observed_measurement=5
